Origin of the recorded values: patent US20070224198A1

biological target: Recombinant human Factor IX (rhFIX, Genetics Institute) (human, UniProt P00740 47-461); experiment: SPR (BIAcore), calculated from kinetics
Sequence (P00740 47-461 limits assumed): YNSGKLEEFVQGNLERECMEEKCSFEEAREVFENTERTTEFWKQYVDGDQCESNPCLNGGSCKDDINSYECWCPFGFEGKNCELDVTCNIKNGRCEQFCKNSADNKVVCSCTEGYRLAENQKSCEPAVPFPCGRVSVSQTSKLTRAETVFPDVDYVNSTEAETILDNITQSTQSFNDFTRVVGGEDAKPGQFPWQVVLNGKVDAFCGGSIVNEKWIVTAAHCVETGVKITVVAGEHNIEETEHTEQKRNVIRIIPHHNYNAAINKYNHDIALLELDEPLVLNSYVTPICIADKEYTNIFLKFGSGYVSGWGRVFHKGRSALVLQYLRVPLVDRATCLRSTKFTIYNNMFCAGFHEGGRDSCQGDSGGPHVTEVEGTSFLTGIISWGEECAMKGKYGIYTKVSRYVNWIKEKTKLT
Assay Endpoint: pKd
Lab note — pKd values are minus log10 of concentrations in M.

Exam item: Quick check: pKd of murine anti-Factor IX monoclonal antibody BC2 (antibody, mouse IgG2a, V domains shown, also called BC2 mAb; BC2 Antibody) VH: QIQLVQSGPELKKPGETVKISCKASGYTFTNYGMNWVKQAPGKGLKWMGWINTRNGKSTYVDDFKGRFAFSLESSASTANLQIDNLKDEDTATYFCTREGNMDGYFPFTYWGQGTLVTVSA VL: QIVLSQSPAILSASPGEKVTMTCRASSSVNYMHWYQQKPGSSPKPWIYATSNLASGVPARFSGSGSGTSYSLTISRVEAEDAATYYCQQWSINPRTFGGGTKLEIKR ?
Marked response: 8.72

Exam item: Quick check: pKd of humanized anti-human Factor IX monoclonal antibody SB 249417 (antibody, V domains shown, also called F9HZHC 1-1 / F9HZLC 2-0) VH: QVQLVQSGSELKKPGASVKVSCKASGYTFTNYGMNWVRQAPGQGLKWMGWINTRNGKSTYVDDFKGRFVFSLDSSVSTAYLQISSLKADDTAVYYCTREGNMDGYFPFTYWGQGTLVTVSS VL: QIVLTQSPSSLSASVGDRVTITCRASSSVNYMHWYQQKPGKAPKPWIYATSNLASGVPSRFSGSGSGTDYTFTISSLQPEDIATYYCQQWSINPRTFGQGTKVEIKR ?
Marked response: 8.72
